Target: Tau
Assay: rat primary cortical neurons, FLIPR, 25 uM ASO
Bases are written 5' to 3'; sugars and linkages follow in the same order, as letters with counts (s phosphorothioate, o phosphodiester; PS: all linkages phosphorothioate). The collection does not say whether C is 5-methylated. l = locked nucleic acid (LNA); d = 2'-deoxy (DNA)
Property Name: calcium oscillation score

Quick one: calcium oscillation score of GGCGACTTGTACAC (sugars l3 d8 l3, PS) ?
117 % of control

What would you report for TTATTTATTCTTTTTATTA (sugars l4 d11 l4, PS) ?
45.2 % of control

What would you report for CTGGTTTATGATGGATGTTG (sugars l3 d14 l3, PS) ?
0 % of control

What would you report for CTTCCAGTCCCGTCTT (sugars l3 d10 l3, PS) ?
0 % of control

What would you report for ATCTCAAGTCTTATTCT (sugars l4 d9 l4, PS) ?
48.8 % of control

What would you report for GCTTTCCAATTCCCCAT (sugars l2 d12 l3, PS) ?
94.5 % of control

What would you report for TATCCAGCCATATTTCAACT (sugars l3 d14 l3, PS) ?
47.6 % of control

What would you report for GCTCTTCAAATCATTCA (sugars l4 d11 l2, PS) ?
81.1 % of control

What would you report for CGTCCCAGCGTGATCTTCCA (sugars lldllddddddddddlldll, PS) ?
59.6 % of control

What would you report for ATGTTTTTTAACTCCCA (sugars l3 d11 l3, PS) ?
83.5 % of control

What would you report for AGCCACACTTGGAGGTCACC (sugars l3 d14 l3, PS) ?
0 % of control

* * *

Target: Tau
Assay: rat primary cortical neurons, FLIPR, 25 uM ASO
Bases are written 5' to 3'; sugars and linkages follow in the same order, as letters with counts (s phosphorothioate, o phosphodiester; PS: all linkages phosphorothioate). The collection does not say whether C is 5-methylated. l = locked nucleic acid (LNA); d = 2'-deoxy (DNA)
Kindly state calcium oscillation score for each of the entries shown.

Quick one: calcium oscillation score of ATTTCCAAATTCACTTTTAC (sugars llldldddddddddllddll, PS) ?
131 % of control

What would you report for CCTCCCTTTAATGCCAGGCC (sugars l3 d14 l3, PS) ?
34.2 % of control

What would you report for CCCGCCTTTAGTGATT (sugars l3 d10 l3, PS) ?
30.9 % of control

What would you report for CAACAGATATTCATTCC (sugars l4 d9 l4, PS) ?
60.6 % of control

What would you report for TCCCTTAACAATATGCT (sugars l2 d11 l4, PS) ?
75.1 % of control

What would you report for CGAGTCTACCATGTCG (sugars l3 d10 l3, PS) ?
103 % of control

* * *

Kindly state calcium oscillation score for each of the entries shown.
Biological target: Tau
Test: rat primary cortical neurons, FLIPR, 25 uM ASO
Bases are written 5' to 3'; sugars and linkages follow in the same order, as letters with counts (s phosphorothioate, o phosphodiester; PS: all linkages phosphorothioate). The collection does not say whether C is 5-methylated. l = locked nucleic acid (LNA); d = 2'-deoxy (DNA)

Quick one: calcium oscillation score of CCAACTTTCATCTACTTTTC (sugars l2 d16 l2, PS) ?
99.7 % of control

What would you report for TTTTATTTCCTCCGCCA (sugars l2 d13 l2, PS) ?
18.5 % of control

What would you report for TCCCCATTTATCCTTCAT (sugars l2 d13 l3, PS) ?
77.3 % of control

What would you report for CAAACTTTTACTCTGAC (sugars l4 d9 l4, PS) ?
63.8 % of control

What would you report for GGGCGAGTCTACCATG (sugars l3 d10 l3, PS) ?
16.3 % of control

What would you report for CCCCATTTTTGACATAT (sugars l2 d12 l3, PS) ?
73.1 % of control

What would you report for CATTTCTGGAAGGTTCTTTC (sugars l3 d14 l3, PS) ?
23.9 % of control

What would you report for CCATCACTTCGAACTC (sugars l3 d10 l3, PS) ?
≥ 200 % of control

What would you report for AGTCCTAATCCTGTGC (sugars l3 d10 l3, PS) ?
25.3 % of control

What would you report for TGGTTAGCCCTAAAGTCCCA (sugars l3 d14 l3, PS) ?
74.5 % of control

What would you report for CTTACACACCACACACACT (sugars l1 d16 l2, PS) ?
100 % of control

What would you report for AGAAATAAGTGGTAGT (sugars l3 d9 l4, PS) ?
101 % of control

What would you report for CGTCCCAGCGTGATCTTCCA (sugars l5 d11 l4, PS) ?
36.2 % of control

What would you report for GATACATGCGTCCTTT (sugars l3 d10 l3, PS) ?
110 % of control

What would you report for CCTAGAACACAACACAC (sugars l3 d10 l4, PS) ?
58.6 % of control

What would you report for AGGAAATCCACAGGGA (sugars l3 d10 l3, PS) ?
0 % of control

What would you report for TCTTCCACTACAAGCTCC (sugars l2 d14 l2, PS) ?
55.8 % of control

What would you report for TATCCTTTGAGCCACACTTG (sugars l3 d14 l3, PS) ?
11.7 % of control

What would you report for CCCAGCGTGATCTTCCATCA (sugars l5 d11 l4, PS) ?
106 % of control

What would you report for CTGGCCATCTTATGCTGACC (sugars l3 d14 l3, PS) ?
12.8 % of control

What would you report for TTCTGAATTCCTATCAT (sugars l4 d10 l3, PS) ?
40.1 % of control

What would you report for CTTTATTTCCAAATTCACTT (sugars l2 d2 l1 d11 l4, PS) ?
74.5 % of control

What would you report for CTCTAAGTAGACCCTGGCCA (sugars l3 d14 l3, PS) ?
19.1 % of control

What would you report for AGTCACTCTGGTGA (sugars l3 d8 l3, PS) ?
97.1 % of control

What would you report for TCCCAGCGTGATCT (sugars l3 d8 l3, PS) ?
3.83 % of control

What would you report for TCCCTTTCAAACCAGC (sugars l2 d10 l4, PS) ?
92.3 % of control

What would you report for ACATCTCTCTAGACATC (sugars l4 d10 l3, PS) ?
68.4 % of control

What would you report for TCAAACTAATATTAACACT (sugars l4 d11 l4, PS) ?
80.8 % of control

What would you report for ACTATGAAATCCTTCT (sugars l4 d8 l4, PS) ?
92.1 % of control

What would you report for TGATGCAGGAGTTGTA (sugars l3 d10 l3, PS) ?
7.62 % of control

What would you report for GAGTCTACCATGTCGA (sugars l3 d10 l3, PS) ?
65.2 % of control

What would you report for CAATTCTCATTTCAACCTTC (sugars l2 d14 l4, PS) ?
54.1 % of control

What would you report for AGCTGGGTGGTGTCTTTGGA (sugars l3 d14 l3, PS) ?
0 % of control

What would you report for TGGATATAGTTAAGGC (sugars l2 d11 l3, PS) ?
95.2 % of control

What would you report for AGCATCAGAGGTTTCA (sugars l3 d10 l3, PS) ?
0 % of control

What would you report for CAGCACACAGGCAGCCACTG (sugars l3 d14 l3, PS) ?
23.8 % of control

What would you report for TAATTACATTTTTTCTTTTT (sugars l4 d12 l4, PS) ?
58.2 % of control

What would you report for CATTAACCCTTGATCATATT (sugars l3 d14 l3, PS) ?
36.3 % of control

What would you report for CTAATTACATTTTTTCTTT (sugars l4 d11 l4, PS) ?
62.6 % of control

What would you report for CAGATTTAATTCTCACT (sugars l4 d9 l4, PS) ?
77.7 % of control

What would you report for ACAATTCTCAGCACACC (sugars l2 d11 l4, PS) ?
48.8 % of control

What would you report for CGTGATCTTCCATCAC (sugars l3 d10 l3, PS) ?
127 % of control

What would you report for GTAGACTATTTGCAC (sugars l3 d9 l3, PS) ?
95.2 % of control

What would you report for GATCTTAGGCTGGCCC (sugars l3 d10 l3, PS) ?
90.7 % of control

What would you report for CAAACCACTCTTATTCTTT (sugars l3 d12 l4, PS) ?
83.2 % of control

What would you report for TCATTCAGCCAATCACA (sugars l3 d11 l3, PS) ?
45.6 % of control

* * *

Kindly state calcium oscillation score for each of the entries shown.
Target: Tau
Assay: rat primary cortical neurons, FLIPR, 25 uM ASO
Bases are written 5' to 3'; sugars and linkages follow in the same order, as letters with counts (s phosphorothioate, o phosphodiester; PS: all linkages phosphorothioate). The collection does not say whether C is 5-methylated. l = locked nucleic acid (LNA); d = 2'-deoxy (DNA)

Quick one: calcium oscillation score of TGTTGCCTAATGAGCCACAC (sugars l3 d14 l3, PS) ?
54.2 % of control

What would you report for TTCTTAGAGGACTGCAACGC (sugars l3 d14 l3, PS) ?
23.9 % of control

What would you report for GACTTGGGTGGAGTAC (sugars l3 d10 l3, PS) ?
0 % of control

What would you report for GACTTGTACACGATCTCCGC (sugars l3 d14 l3, PS) ?
66.8 % of control

What would you report for CATAGCACTTACTACTT (sugars l4 d10 l3, PS) ?
84.1 % of control

What would you report for TTTGTAGACTATTTG (sugars l3 d9 l3, PS) ?
0 % of control
